# Tgt: Cyclin-dependent kinase 2 (Homo sapiens) (UniProt P24941)
# Procedure Details: Inhibition of GST-tagged CDK2/cyclinE (unknown origin) expressed in Sf9 cells assessed as residual activity using histone H1 as substrate in presence of ATP and Ci(gamma33-P) ATP at 1 uM measured by microplate reader assay
Quantity Kind: Activity (%)

*Q* Which value of Activity has been reported for Cc1c(NC(=O)c2ccc(C(C)(C)C)cc2)cccc1-c1cc2c(ncn2C)c(Nc2ccc(C(=O)N3CCOCC3)cc2)n1 in the records?
*A* 95.6

*Q* What would you report for C=CC(=O)N1CCC[C@H](n2nc(-c3ccc(Oc4ccccc4)cc3)c3c(N)ncnc32)C1 ?
*A* 69.8

*Q* What would you report for Cc1c(NC(=O)c2ccccn2)cccc1-c1cc2[nH]cnc2c(Nc2ccc(C(=O)N3CCOCC3)cc2)n1 ?
*A* 93.7

*Q* What would you report for Cc1c(NC(=O)c2ccc(C(C)(C)C)cc2)cccc1-c1cc2[nH]cnc2c(Nc2ccc(C(=O)N3CCOCC3)cc2)n1 ?
*A* 92.1

*Q* What would you report for CC(=O)Nc1cccc(-c2cc3[nH]cnc3c(Nc3ccc(C(=O)N4CCOCC4)cc3)n2)c1C ?
*A* 94.5

*Q* What would you report for Cc1c(NC(=O)C2CCCCC2)cccc1-c1cc2[nH]cnc2c(Nc2ccc(C(=O)N3CCOCC3)cc2)n1 ?
*A* 93

###

# Tgt: Tyrosine-protein kinase Fyn (Homo sapiens) (UniProt P06241)
# Sequence (P06241 2-537 limits assumed): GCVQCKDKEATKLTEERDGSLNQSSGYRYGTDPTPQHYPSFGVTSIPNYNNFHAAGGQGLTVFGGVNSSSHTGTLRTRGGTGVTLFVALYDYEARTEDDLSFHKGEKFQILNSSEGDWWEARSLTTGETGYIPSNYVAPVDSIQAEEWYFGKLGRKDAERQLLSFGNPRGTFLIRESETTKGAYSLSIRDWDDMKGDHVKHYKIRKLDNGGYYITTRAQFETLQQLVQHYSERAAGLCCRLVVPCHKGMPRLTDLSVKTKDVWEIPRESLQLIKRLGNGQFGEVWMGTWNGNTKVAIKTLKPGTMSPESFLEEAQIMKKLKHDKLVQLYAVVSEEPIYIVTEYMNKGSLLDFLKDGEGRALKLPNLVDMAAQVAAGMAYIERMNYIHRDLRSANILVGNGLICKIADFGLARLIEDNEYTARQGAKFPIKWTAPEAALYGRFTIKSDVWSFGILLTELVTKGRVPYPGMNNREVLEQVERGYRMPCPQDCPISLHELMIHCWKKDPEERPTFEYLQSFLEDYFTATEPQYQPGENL
# Procedure Details: Inhibition of human recombinant full length GST-tagged FYN (M1 to L537 residues) assessed as residual activity using poly (Glu,Tyr) as substrate in presence of ATP and Ci(gamma33-P) ATP at 1 uM measured by microplate reader assay
Quantity Kind: Activity (%)

Some compounds with known Activity results, for comparison:
*Q* Which value of Activity has been reported for Cc1c(NC(=O)c2cccnc2)cccc1-c1cc2[nH]cnc2c(Nc2ccc(C(=O)N3CCOCC3)cc2)n1 in the records?
*A* 75.2

*Q* What would you report for CC(C)(C)c1ccc(C(=O)Nc2cccc(-c3cc4[nH]cnc4c(Nc4ccc(C(=O)N5CCOCC5)cc4)n3)c2)cc1 ?
*A* 86.4

*Q* What would you report for COc1ccc(Cn2cnc3c(Nc4ccc(C(=O)N5CCOCC5)cc4)nc(-c4cccc(NC(=O)c5ccc(C(C)(C)C)cc5)c4C)cc32)cc1 ?
*A* 73.9

*Q* What would you report for Cc1c(NC(=O)c2nc3ccccc3[nH]2)cccc1-c1cc2[nH]cnc2c(Nc2ccc(C(=O)N3CCOCC3)cc2)n1 ?
*A* 64.7

(I) Cc1c(NC(=O)c2ccccc2)cccc1-c1cc2[nH]cnc2c(Nc2ccc(C(=O)N3CCOCC3)cc2)n1
(II) Cc1c(NC(=O)C2CCCCC2)cccc1-c1cc2[nH]cnc2c(Nc2ccc(C(=O)N3CCOCC3)cc2)n1
*Q* Which one would you say has the larger Activity value: I , or II ? Reply with the label of the item you choose.
*A* II
(II: 95.1%, I: 65.3%)

###

# Tgt: Tyrosine-protein kinase BTK (Homo sapiens)
pIC50: −log10 of the molar value.
Quantity Kind: pIC50

Some compounds with known pIC50 results, for comparison:
*Q* # value lookup — system Tyrosine-protein kinase BTK (Homo sapiens), readout pIC50, item Cc1c(NC(=O)c2ncc[nH]2)cccc1-c1cc2[nH]cnc2c(Nc2ccc(C(=O)N3CCOCC3)cc2)n1
*A* 7.39

*Q* What would you report for Cc1c(NC(=O)C2CCCCC2)cccc1-c1cc2[nH]cnc2c(Nc2ccc(C(=O)N3CCOCC3)cc2)n1 ?
*A* 6.03

*Q* What would you report for Cc1c(NC(=O)c2cccc(C(C)(C)C)c2)cccc1-c1cc2[nH]cnc2c(Nc2ccc(C(=O)N3CCOCC3)cc2)n1 ?
*A* 6.15

*Q* What would you report for CC(C)(C)c1ccc(C(=O)Nc2cccc(-c3cc4[nH]cnc4c(Nc4ccc(C(=O)N5CCOCC5)cc4)n3)c2)cc1 ?
*A* 7.57

(A) Cc1c(NC(=O)c2ccc(C(C)(C)C)cc2)cccc1-c1cc2[nH]cnc2c(Nc2ccc(C(=O)N3CCOCC3)cc2)n1
(B) Cc1c(NC(=O)c2ccccc2)cccc1-c1cc2[nH]cnc2c(Nc2ccc(C(=O)N3CCOCC3)cc2)n1
*Q* Which one would you say has the larger pIC50 value: A , or B ? Reply with the label of the item you choose.
*A* A
(A: 7.60, B: 6.81)

###

# Tgt: Cyclin-dependent kinase 2 (Homo sapiens) (UniProt P24941)
# Procedure Details: Inhibition of GST-tagged CDK2/cyclinE (unknown origin) expressed in Sf9 cells assessed as residual activity using histone H1 as substrate in presence of ATP and Ci(gamma33-P) ATP at 1 uM measured by microplate reader assay
Quantity Kind: Activity (%)

*Q* Which value of Activity has been reported for CC(C)(C)c1ccc(C(=O)Nc2cccc(-c3cc4[nH]cnc4c(Nc4ccc(C(=O)N5CCOCC5)cc4)n3)c2)cc1 in the records?
*A* 98.7

*Q* What would you report for Cc1c(NC(=O)c2cccnc2)cccc1-c1cc2[nH]cnc2c(Nc2ccc(C(=O)N3CCOCC3)cc2)n1 ?
*A* 89

*Q* What would you report for Cc1c(NC(=O)c2nc3ccccc3[nH]2)cccc1-c1cc2[nH]cnc2c(Nc2ccc(C(=O)N3CCOCC3)cc2)n1 ?
*A* 97.9

*Q* What would you report for Cc1c(NC(=O)c2cccc(C(C)(C)C)c2)cccc1-c1cc2[nH]cnc2c(Nc2ccc(C(=O)N3CCOCC3)cc2)n1 ?
*A* 95.3

###

# Tgt: Tyrosine-protein kinase SYK (Homo sapiens) (UniProt P43405)
# Procedure Details: Inhibition of human recombinant GST-tagged SYK (M1 to N635 residues) assessed as residual activity using poly (Glu,Tyr) as substrate in presence of ATP and Ci(gamma33-P) ATP at 1 uM measured by microplate reader assay
Quantity Kind: Activity (%)

*Q* Which value of Activity has been reported for Cc1c(NC(=O)c2ccccc2)cccc1-c1cc2[nH]cnc2c(Nc2ccc(C(=O)N3CCOCC3)cc2)n1 in the records?
*A* 71.3

(I) Cc1c(NC(=O)C2CCCCC2)cccc1-c1cc2[nH]cnc2c(Nc2ccc(C(=O)N3CCOCC3)cc2)n1
(II) Cc1c(NC(=O)c2nc3ccccc3[nH]2)cccc1-c1cc2[nH]cnc2c(Nc2ccc(C(=O)N3CCOCC3)cc2)n1
(III) Cc1c(NC(=O)c2cccnc2)cccc1-c1cc2[nH]cnc2c(Nc2ccc(C(=O)N3CCOCC3)cc2)n1
*Q* // smallest Activity at index 0, largest at the end The reply should contain the labels ordered as requested.
*A* I, III, II
(I: 43.3%, III: 62.3%, II: 92%)

###

# Tgt: Tyrosine-protein kinase ABL1 (Homo sapiens)
# Procedure Details: Inhibition of Abl (unknown origin) expressed in Sf9 cells assessed as residual activity using GGEAIYAAPFKK peptide as substrate in presence of ATP and Ci(gamma33-P)ATP at 1 uM measured by microplate reader
Quantity Kind: Activity (%)

Some molecules with known Activity results, for comparison:
*Q* Which value of Activity has been reported for Cc1c(NC(=O)c2ncc[nH]2)cccc1-c1cc2[nH]cnc2c(Nc2ccc(C(=O)N3CCOCC3)cc2)n1 in the records?
*A* 39.4

*Q* What would you report for Cc1c(NC(=O)c2nc3ccccc3[nH]2)cccc1-c1cc2[nH]cnc2c(Nc2ccc(C(=O)N3CCOCC3)cc2)n1 ?
*A* 78

*Q* What would you report for C=CC(=O)N1CCC[C@H](n2nc(-c3ccc(Oc4ccccc4)cc3)c3c(N)ncnc32)C1 ?
*A* 62.8

(I) Cc1c(NC(=O)c2c[nH]cn2)cccc1-c1cc2[nH]cnc2c(Nc2ccc(C(=O)N3CCOCC3)cc2)n1
(II) CC(=O)Nc1cccc(-c2cc3[nH]cnc3c(Nc3ccc(C(=O)N4CCOCC4)cc3)n2)c1C
*Q* Which one would you say has the larger Activity value: I , or II ? Reply with the label of the item you choose.
*A* I

###

# Tgt: Tyrosine-protein kinase BTK (Homo sapiens, UniProt Q06187)
# Sequence (Q06187 whole entry): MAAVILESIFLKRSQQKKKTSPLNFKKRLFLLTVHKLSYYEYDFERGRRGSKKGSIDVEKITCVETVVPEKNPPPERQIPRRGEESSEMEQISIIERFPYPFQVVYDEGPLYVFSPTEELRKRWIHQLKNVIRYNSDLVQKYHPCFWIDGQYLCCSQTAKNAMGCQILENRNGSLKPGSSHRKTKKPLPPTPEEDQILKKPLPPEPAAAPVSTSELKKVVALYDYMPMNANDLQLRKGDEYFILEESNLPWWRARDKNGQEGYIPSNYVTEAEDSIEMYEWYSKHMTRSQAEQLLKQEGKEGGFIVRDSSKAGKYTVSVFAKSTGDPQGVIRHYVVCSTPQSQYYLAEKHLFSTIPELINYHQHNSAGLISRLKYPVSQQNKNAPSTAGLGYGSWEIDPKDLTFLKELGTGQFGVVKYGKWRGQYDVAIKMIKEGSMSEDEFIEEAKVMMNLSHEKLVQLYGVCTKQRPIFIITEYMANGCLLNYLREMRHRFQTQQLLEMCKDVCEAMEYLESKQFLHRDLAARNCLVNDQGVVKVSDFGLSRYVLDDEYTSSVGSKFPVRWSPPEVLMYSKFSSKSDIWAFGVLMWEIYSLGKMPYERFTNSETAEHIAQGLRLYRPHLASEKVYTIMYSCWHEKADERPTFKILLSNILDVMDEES
# Procedure Details: Inhibition of human BTK assessed as residual activity using poly (Glu,Tyr) as substrate in presence of ATP and Ci(gamma33-P) ATP at 1 uM measured by microplate reader assay
Quantity Kind: Activity (%)

Some compounds with known Activity results, for comparison:
*Q* Which value of Activity has been reported for Cc1c(NC(=O)c2ccc(C(C)(C)C)cc2)cccc1-c1cc2c(ncn2C)c(Nc2ccc(C(=O)N3CCOCC3)cc2)n1 in the records?
*A* 39.7

*Q* What would you report for Cc1c(NC(=O)c2ncc[nH]2)cccc1-c1cc2[nH]cnc2c(Nc2ccc(C(=O)N3CCOCC3)cc2)n1 ?
*A* 24.2

*Q* What would you report for Cc1c(NC(=O)c2ccc(C(C)(C)C)cc2)cccc1-c1cc2[nH]cnc2c(Nc2ccc(C(=O)N3CCOCC3)cc2)n1 ?
*A* 18.4

*Q* What would you report for Cc1c(NC(=O)c2nc3ccccc3[nH]2)cccc1-c1cc2[nH]cnc2c(Nc2ccc(C(=O)N3CCOCC3)cc2)n1 ?
*A* 20.9

*Q* What would you report for Cc1c(NC(=O)c2cccnc2)cccc1-c1cc2[nH]cnc2c(Nc2ccc(C(=O)N3CCOCC3)cc2)n1 ?
*A* 25.3

*Q* What would you report for CC(C)(C)c1ccc(C(=O)Nc2cccc(-c3cc4[nH]cnc4c(Nc4ccc(C(=O)N5CCOCC5)cc4)n3)c2)cc1 ?
*A* 14.7

(P) COc1ccc(Cn2cnc3c(Nc4ccc(C(=O)N5CCOCC5)cc4)nc(-c4cccc(NC(=O)c5ccc(C(C)(C)C)cc5)c4C)cc32)cc1
(Q) CC(=O)Nc1cccc(-c2cc3[nH]cnc3c(Nc3ccc(C(=O)N4CCOCC4)cc3)n2)c1C
(R) Cc1c(NC(=O)c2ccccc2)cccc1-c1cc2[nH]cnc2c(Nc2ccc(C(=O)N3CCOCC3)cc2)n1
*Q* Hey, quick one: sort these by Activity, largest value first please. The reply should contain the labels ordered as requested.
*A* P, Q, R
(P: 71.2%, Q: 38.8%, R: 20.1%)

(P) Cc1c(NC(=O)C2CCCCC2)cccc1-c1cc2[nH]cnc2c(Nc2ccc(C(=O)N3CCOCC3)cc2)n1
(Q) Cc1c(NC(=O)c2ccccn2)cccc1-c1cc2[nH]cnc2c(Nc2ccc(C(=O)N3CCOCC3)cc2)n1
*Q* Between P and Q , which one has the lower reported Activity value? Reply with the label of the item you choose.
*A* Q

(P) Cc1c(NC(=O)c2cccc(C(C)(C)C)c2)cccc1-c1cc2[nH]cnc2c(Nc2ccc(C(=O)N3CCOCC3)cc2)n1
(Q) Cc1c(NC(=O)c2c[nH]cn2)cccc1-c1cc2[nH]cnc2c(Nc2ccc(C(=O)N3CCOCC3)cc2)n1
*Q* Between P and Q , which one has the lower reported Activity value? Reply with the label of the item you choose.
*A* Q
